# Test system: SARS-CoV-2 Wuhan type (SARS-CoV-2PR-1)
# Run Description: microbe, parasite or virus in culture
# Type: cell-based
# Condition Parameters: Severe acute respiratory syndrome coronavirus 2, Calu-3, calculated from EC 3.2 IC50 and HPLC analysis (Table 4), read-out: IC50 of the main compounds of EC 3.2
Property: IC50 (µM)
Answers are plain numbers, in µM.

Some solved cases for reference:
Compound	Output Unit	IC50
O=c1c(O[C@@H]2O[C@H](CO)[C@@H](O)[C@H](O)[C@H]2O)c(-c2ccc(O)c(O)c2)oc2cc(O)cc(O)c12 [Isoquercitrin]	µM	1.3
O=C(/C=C/c1ccc(O)c(O)c1)O[C@@H]1C[C@](O)(C(=O)O)C[C@@H](O)[C@H]1O [Chlorogenic acid]	µM	6.6

Q. Test system SARS-CoV-2 Wuhan type (SARS-CoV-2PR-1); read-out IC50; what value for C[C@@H]1O[C@@H](OC[C@H]2O[C@@H](Oc3c(-c4ccc(O)c(O)c4)oc4cc(O)cc(O)c4c3=O)[C@H](O)[C@@H](O)[C@@H]2O)[C@H](O)[C@H](O)[C@H]1O [Rutin] ?
A. 17

---

# Tested on: SARS-CoV-2 Gamma
# Run Description: microbe, parasite or virus in culture
# Format: cell-based
# Condition Parameters: Calu-3, calculated from EC 3.2 IC50 and HPLC analysis (Table 4), read-out: IC50 of the main compounds of EC 3.2
Property: pIC50
One number for each entry, as −log10 of the molar value.

Compound	pIC50
OC[C@H]1O[C@@H](Oc2cc3c(O)cc(O)cc3[o+]c2-c2ccc(O)c(O)c2)[C@H](O)[C@@H](O)[C@@H]1O [Cyanidin-3-glucoside]	3.91
OC[C@H]1O[C@@H](Oc2cc3c(O)cc(O)cc3[o+]c2-c2ccc(O)c(O)c2)[C@H](O[C@@H]2OC[C@@H](O)[C@H](O)[C@H]2O)[C@@H](O)[C@@H]1O [Cyanidin-3-sambubioside]	3.97

Q. # lookup: pIC50 of OC[C@H]1O[C@@H](Oc2cc(O)cc3[o+]c(-c4ccc(O)c(O)c4)c(O[C@@H]4O[C@H](CO)[C@@H](O)[C@H](O)[C@H]4O[C@@H]4OC[C@@H](O)[C@H](O)[C@H]4O)cc23)[C@H](O)[C@@H](O)[C@@H]1O [Cyanidin-3-sambubioside-5-glucoside]
A. 4.74
